Target: mouse CYP2A5 (Mus musculus (Mouse), UniProt P20852)
Sequence (P20852 whole entry): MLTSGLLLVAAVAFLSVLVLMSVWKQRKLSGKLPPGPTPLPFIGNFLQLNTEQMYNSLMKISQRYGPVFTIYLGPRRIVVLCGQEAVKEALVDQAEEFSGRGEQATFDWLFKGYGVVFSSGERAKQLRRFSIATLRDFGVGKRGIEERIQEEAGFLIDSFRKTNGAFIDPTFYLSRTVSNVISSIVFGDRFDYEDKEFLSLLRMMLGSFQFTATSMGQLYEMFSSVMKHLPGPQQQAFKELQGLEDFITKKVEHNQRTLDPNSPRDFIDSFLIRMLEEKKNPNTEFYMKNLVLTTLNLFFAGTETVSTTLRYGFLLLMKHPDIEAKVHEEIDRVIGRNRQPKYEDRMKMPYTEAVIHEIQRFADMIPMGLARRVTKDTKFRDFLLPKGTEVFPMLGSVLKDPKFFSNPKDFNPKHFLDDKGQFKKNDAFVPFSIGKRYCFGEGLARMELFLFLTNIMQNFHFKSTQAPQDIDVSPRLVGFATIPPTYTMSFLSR
Assay: Inhibition of mouse CYP2A5
Type: biochemical
Settings: read-out: IC50 mCYP2A5
REPORTED ENDPOINT: pIC50
FYI, pIC50 means -log10 of a concentration in mol per litre.

input: Give mouse CYP2A5 (Mus musculus (Mouse), UniProt P20852) pIC50 for c1cncc(-c2ccsc2)c1 [TD-I-145]
output: 6.10

input: Give mouse CYP2A5 (Mus musculus (Mouse), UniProt P20852) pIC50 for NCc1ccc(-c2cccnc2)o1 [TD-II-063]
output: 6.22

input: Give mouse CYP2A5 (Mus musculus (Mouse), UniProt P20852) pIC50 for NCc1ccc(-c2cccnc2)s1 [TD-II-039]
output: 6.30

input: Give mouse CYP2A5 (Mus musculus (Mouse), UniProt P20852) pIC50 for Cc1cscc1-c1cccnc1 [TD-I-103]
output: 6.12

input: Give mouse CYP2A5 (Mus musculus (Mouse), UniProt P20852) pIC50 for Cc1ccsc1-c1cccnc1 [TD-II-025]
output: 6.52

input: Give mouse CYP2A5 (Mus musculus (Mouse), UniProt P20852) pIC50 for CNCc1ccc(-c2cccnc2)s1 [TD-IV-073 30]
output: 6.05
